# tgt: T1, human CTLA4 (human)
# T1 construct: also called hCTLA4; hCTLA4-His-BAP
# methodSummary: SPR Biacore T200, 37C, antibody captured, no ATP, steady state model

binder	Kd [µM]
04H1637-G1m/04L1594-lam1 (antibody, human IgG1, lambda, V domains shown) VH: QVQLVESGGGLVKPGGSLRLSCAASGFTFSSKTMNWVRQAPGKGLEWVSSISTQSHYIYYAESVRGRFTISRDNAKNSLYLQMNSLRAEDTAVYYCARYGKREDMLWVFDYWGQGTLVTVSS VL: QSALTQPPSASGSPGQSVTISCQGPSTGVGDYNWVHWYQQHPGKAPKLMIYFTSKKPKGVPDRFSGSKSGNTASLTVSGLQAEDEADYYCQTYAAPLGPMFGGGTKLTVLG	4.3
